- measured.on: insulin receptor (mouse, UniProt P15208 28-1372)
- Sequence (P15208 28-1372): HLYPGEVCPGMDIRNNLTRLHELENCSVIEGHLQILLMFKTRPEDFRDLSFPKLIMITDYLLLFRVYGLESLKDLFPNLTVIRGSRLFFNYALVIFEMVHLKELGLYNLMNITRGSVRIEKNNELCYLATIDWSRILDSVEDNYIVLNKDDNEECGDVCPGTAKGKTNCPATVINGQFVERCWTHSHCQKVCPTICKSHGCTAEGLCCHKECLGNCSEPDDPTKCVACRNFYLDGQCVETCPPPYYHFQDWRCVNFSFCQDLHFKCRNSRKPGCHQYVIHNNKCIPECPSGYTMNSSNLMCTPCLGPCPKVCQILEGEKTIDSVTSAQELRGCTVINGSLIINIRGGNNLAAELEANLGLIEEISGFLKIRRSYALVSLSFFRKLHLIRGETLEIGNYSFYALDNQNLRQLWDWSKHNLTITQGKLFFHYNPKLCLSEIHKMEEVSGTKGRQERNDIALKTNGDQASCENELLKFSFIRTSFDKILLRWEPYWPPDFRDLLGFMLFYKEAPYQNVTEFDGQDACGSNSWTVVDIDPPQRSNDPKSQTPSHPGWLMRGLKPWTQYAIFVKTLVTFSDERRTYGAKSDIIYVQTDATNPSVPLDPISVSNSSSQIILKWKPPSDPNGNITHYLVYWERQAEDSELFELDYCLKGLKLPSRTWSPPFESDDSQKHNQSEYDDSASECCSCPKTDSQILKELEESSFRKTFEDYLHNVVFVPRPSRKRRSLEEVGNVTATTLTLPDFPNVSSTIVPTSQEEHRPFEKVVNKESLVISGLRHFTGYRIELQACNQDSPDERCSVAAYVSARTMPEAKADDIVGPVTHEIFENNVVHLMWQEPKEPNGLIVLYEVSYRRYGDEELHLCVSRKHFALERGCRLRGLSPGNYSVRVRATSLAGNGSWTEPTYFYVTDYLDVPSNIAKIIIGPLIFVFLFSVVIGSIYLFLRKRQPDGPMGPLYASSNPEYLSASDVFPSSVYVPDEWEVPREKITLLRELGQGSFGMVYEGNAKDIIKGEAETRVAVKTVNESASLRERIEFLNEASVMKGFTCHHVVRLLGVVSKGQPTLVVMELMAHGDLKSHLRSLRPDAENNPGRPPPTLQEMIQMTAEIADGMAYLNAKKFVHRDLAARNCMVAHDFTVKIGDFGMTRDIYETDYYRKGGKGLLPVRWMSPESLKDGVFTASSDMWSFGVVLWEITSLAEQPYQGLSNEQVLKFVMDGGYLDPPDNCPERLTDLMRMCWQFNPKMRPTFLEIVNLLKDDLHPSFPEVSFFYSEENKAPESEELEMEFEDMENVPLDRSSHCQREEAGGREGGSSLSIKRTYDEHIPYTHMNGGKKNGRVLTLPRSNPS
- assay.explanation: cell-based or functional assay
readout.name: p-IR/IR
No unit in the answer, please; the number alone is enough.

Examples from the recorded data:
>>> numeric_result("INPNEQREV [Polypeptide 2]")
1
>>> numeric_result("GGGDATRYSTGGGYS [Polypeptide 1]")
1.81
>>> numeric_result("MQIFVK [Polypeptide 4]")
1.97

Reported p-IR/IR of MQIFVKTLTG [Polypeptide 3] : 3.08

Data provenance is patent US20250109168A1.
